# Test system: NCI-H1793
# protocol-details: relative viability (nuclei count vs DMSO), 5 days (fraction); higher = more cells survive
# study-conditions: first compound 15.81 µM
measurement-kind: relative viability
Give the value as a plain number.

>>> observed_measurement("O=C(O)CCCCC(CCSCc1ccccc1)SCc1ccccc1 (centres undefined) [CPI-613] + COc1cc2c(Oc3ccc(NC(=O)C4(C(=O)Nc5ccc(F)cc5)CC4)cc3F)ccnc2cc1OCCCN1CCOCC1 [Foretinib] (partner 0.25 µM)")
0.618
>>> observed_measurement("O=C(O)CCCCC(CCSCc1ccccc1)SCc1ccccc1 (centres undefined) [CPI-613] + Cc1nc(Nc2ncc(C(=O)Nc3c(C)cccc3Cl)s2)cc(N2CCN(CCO)CC2)n1 [Dasatinib] (partner 0.075 µM)")
0.317
>>> observed_measurement("O=C(O)CCCCC(CCSCc1ccccc1)SCc1ccccc1 (centres undefined) [CPI-613] + CC(=O)c1c(C)c2cnc(Nc3ccc(N4CCNCC4)cn3)nc2n(C2CCCC2)c1=O [Palbociclib] (partner 0.5 µM)")
0.33

Lookup: Which measured relative viability value corresponds to O=C(O)CCCCC(CCSCc1ccccc1)SCc1ccccc1 (centres undefined) [CPI-613] + NC(=O)Nc1cc(-c2cccc(F)c2)sc1C(=O)N[C@H]1CCCNC1 [AZD7762] (partner 0.2 µM) ?
Found: 0.367

---

# Tested on: LXF-289
# protocol-details: relative viability (nuclei count vs DMSO), 5 days (fraction); higher = more cells survive
# study-conditions: first compound 0.002 µM
With a cut-off of 0.4, any relative viability strictly below it is called y; any relative viability meeting it or above is called n.

Sample answers from the record:
>>> category_label("CC(=O)O[C@@]12CO[C@@H]1C[C@H](O)[C@@]1(C)C(=O)[C@H](O)C3=C(C)[C@@H](OC(=O)[C@H](O)[C@@H](NC(=O)OC(C)(C)C)c4ccccc4)C[C@@](O)([C@@H](OC(=O)c4ccccc4)[C@H]21)C3(C)C [Docetaxel] + Cc1nc(Nc2ncc(C(=O)Nc3c(C)cccc3Cl)s2)cc(N2CCN(CCO)CC2)n1 [Dasatinib] (partner 0.075 µM)")
"y"
>>> category_label("CC(=O)O[C@@]12CO[C@@H]1C[C@H](O)[C@@]1(C)C(=O)[C@H](O)C3=C(C)[C@@H](OC(=O)[C@H](O)[C@@H](NC(=O)OC(C)(C)C)c4ccccc4)C[C@@](O)([C@@H](OC(=O)c4ccccc4)[C@H]21)C3(C)C [Docetaxel] + Cc1nc(NC(=O)N2CCC[C@H]2C(N)=O)sc1-c1ccnc(C(C)(C)C(F)(F)F)c1 [Alpelisib] (partner 2 µM)")
"n"
>>> category_label("CC(=O)O[C@@]12CO[C@@H]1C[C@H](O)[C@@]1(C)C(=O)[C@H](O)C3=C(C)[C@@H](OC(=O)[C@H](O)[C@@H](NC(=O)OC(C)(C)C)c4ccccc4)C[C@@](O)([C@@H](OC(=O)c4ccccc4)[C@H]21)C3(C)C [Docetaxel] + C[C@@H](Oc1cc(-c2cnn(C3CCNCC3)c2)cnc1N)c1c(Cl)ccc(F)c1Cl [Crizotinib] (partner 1 µM)")
"n"
>>> category_label("CC(=O)O[C@@]12CO[C@@H]1C[C@H](O)[C@@]1(C)C(=O)[C@H](O)C3=C(C)[C@@H](OC(=O)[C@H](O)[C@@H](NC(=O)OC(C)(C)C)c4ccccc4)C[C@@](O)([C@@H](OC(=O)c4ccccc4)[C@H]21)C3(C)C [Docetaxel] + Nc1nc2[nH]cc(CCc3ccc(C(=O)N[C@@H](CCC(=O)O)C(=O)O)cc3)c2c(=O)[nH]1 [Pemetrexed] (partner 0.2 µM)")
"y"

Okay, now this molecule:
Lookup: Regarding CC(=O)O[C@@]12CO[C@@H]1C[C@H](O)[C@@]1(C)C(=O)[C@H](O)C3=C(C)[C@@H](OC(=O)[C@H](O)[C@@H](NC(=O)OC(C)(C)C)c4ccccc4)C[C@@](O)([C@@H](OC(=O)c4ccccc4)[C@H]21)C3(C)C [Docetaxel] + CCNC(=O)c1noc(-c2cc(C(C)C)c(O)cc2O)c1-c1ccc(CN2CCOCC2)cc1 [Luminespib] (partner 0.01 µM) , kindly confirm whether its relative viability is beneath 0.4.
Found: y

---

# System: LCLC-103H
# protocol-details: relative viability (nuclei count vs DMSO), 5 days (fraction); higher = more cells survive
# study-conditions: first compound 0.1265 µM
measurement-kind: relative viability
Give the value as a plain number.

Worked cases, relative viability given:
>>> observed_measurement("Cc1sc2c(c1C)C(c1ccc(Cl)cc1)=N[C@@H](CC(=O)OC(C)(C)C)c1nnc(C)n1-2 [JQ1] + CC(=O)c1c(C)c2cnc(Nc3ccc(N4CCNCC4)cn3)nc2n(C2CCCC2)c1=O [Palbociclib] (partner 0.5 µM)")
0.438
>>> observed_measurement("Cc1sc2c(c1C)C(c1ccc(Cl)cc1)=N[C@@H](CC(=O)OC(C)(C)C)c1nnc(C)n1-2 [JQ1] + CS(=O)(=O)N1CCN(Cc2cc3nc(-c4cccc5[nH]ncc45)nc(N4CCOCC4)c3s2)CC1 [Pictilisib] (partner 1 µM)")
0.522
>>> observed_measurement("Cc1sc2c(c1C)C(c1ccc(Cl)cc1)=N[C@@H](CC(=O)OC(C)(C)C)c1nnc(C)n1-2 [JQ1] + O=C(CCCCCCC(=O)Nc1ccccc1)NO [Vorinostat] (partner 1 µM)")
0.536
>>> observed_measurement("Cc1sc2c(c1C)C(c1ccc(Cl)cc1)=N[C@@H](CC(=O)OC(C)(C)C)c1nnc(C)n1-2 [JQ1] + O=C(c1cc(Cc2n[nH]c(=O)c3ccccc23)ccc1F)N1CCN(C(=O)C2CC2)CC1 [Olaparib] (partner 8 µM)")
0.714

Would you kindly look at the next entry?
Lookup: Which measured relative viability value corresponds to Cc1sc2c(c1C)C(c1ccc(Cl)cc1)=N[C@@H](CC(=O)OC(C)(C)C)c1nnc(C)n1-2 [JQ1] + COc1cc2c(Oc3ccc(NC(=O)C4(C(=O)Nc5ccc(F)cc5)CC4)cc3F)ccnc2cc1OCCCN1CCOCC1 [Foretinib] (partner 0.25 µM) ?
Found: 0.6

---

# Tested on: A-427
# protocol-details: relative viability (nuclei count vs DMSO), 5 days (fraction); higher = more cells survive
# study-conditions: first compound 0.4 µM
Listed compounds paired with reported relative viability

Worked cases, relative viability given:
>>> observed_measurement("Cc1sc2c(c1C)C(c1ccc(Cl)cc1)=N[C@@H](CC(=O)OC(C)(C)C)c1nnc(C)n1-2 [JQ1] + NC(=O)Nc1cc(-c2cccc(F)c2)sc1C(=O)N[C@H]1CCCNC1 [AZD7762] (partner 0.2 µM)")
0.594
>>> observed_measurement("Cc1sc2c(c1C)C(c1ccc(Cl)cc1)=N[C@@H](CC(=O)OC(C)(C)C)c1nnc(C)n1-2 [JQ1] + N=C(N)NC(=N)NCCc1ccccc1 [Phenformin] (partner 250 µM)")
0.341

Would you kindly look at the next entry?
Lookup: Notebook entry, A-427 assay: relative viability of Cc1sc2c(c1C)C(c1ccc(Cl)cc1)=N[C@@H](CC(=O)OC(C)(C)C)c1nnc(C)n1-2 [JQ1] + Cc1nc(Nc2ncc(C(=O)Nc3c(C)cccc3Cl)s2)cc(N2CCN(CCO)CC2)n1 [Dasatinib] (partner 0.075 µM) = ?
Found: 0.696

---

# Test system: BEN
# protocol-details: relative viability (nuclei count vs DMSO), 5 days (fraction); higher = more cells survive
# study-conditions: first compound 500 µM
Listed compounds paired with reported relative viability
Give the value as a plain number.

Worked cases, relative viability given:
>>> observed_measurement("O=C(O)CCCCC(CCSCc1ccccc1)SCc1ccccc1 (stereo not given) [CPI-613] + CS(=O)(=O)N1CCN(Cc2cc3nc(-c4cccc5[nH]ncc45)nc(N4CCOCC4)c3s2)CC1 [Pictilisib] (partner 1 µM)")
0.495
>>> observed_measurement("O=C(O)CCCCC(CCSCc1ccccc1)SCc1ccccc1 (stereo not given) [CPI-613] + O=C(c1cc(Cc2n[nH]c(=O)c3ccccc23)ccc1F)N1CCN(C(=O)C2CC2)CC1 [Olaparib] (partner 8 µM)")
0.931
>>> observed_measurement("O=C(O)CCCCC(CCSCc1ccccc1)SCc1ccccc1 (stereo not given) [CPI-613] + C[C@@H](Oc1cc(-c2cnn(C3CCNCC3)c2)cnc1N)c1c(Cl)ccc(F)c1Cl [Crizotinib] (partner 1 µM)")
0.769
>>> observed_measurement("O=C(O)CCCCC(CCSCc1ccccc1)SCc1ccccc1 (stereo not given) [CPI-613] + Cc1nc(NC(=O)N2CCC[C@H]2C(N)=O)sc1-c1ccnc(C(C)(C)C(F)(F)F)c1 [Alpelisib] (partner 2 µM)")
0.858

Would you kindly look at the next entry?
Lookup: Notebook entry, BEN assay: relative viability of O=C(O)CCCCC(CCSCc1ccccc1)SCc1ccccc1 (stereo not given) [CPI-613] + N=C(N)NC(=N)NCCc1ccccc1 [Phenformin] (partner 250 µM) = ?
Found: 0.215
